Test: Quantitative highthroughput screen to assess conditional lethalithy of SEM cells grown in Human Plasma-Like Medium with dialyzed fetal bovine serum (HPLM+ds) (AID 1963882); also: nearly all actives have a fitted effect of over 35% in size; also: potency is read from the fitted curve at half-maximal effect
Details: SEM B-ALL cells in HPLM+ds, CellTiter-Glo viability, 48 h; series mostly up to 45.8 µM
Inconclusive results are not listed. The source made the active and inactive calls. Calls follow the shape of the dose curve; as a rule, active = well fitted cell-killing curve with a large enough effect; inconclusive = small, poorly fitted or top-dose-only effect, or effect the other way; inactive = no such curve, though single readings can be large or run the other way.
MEASUREMENT NAME: Potency

{"columns": ["COMPOUND", "VALUE"],
 "data": [
  ["Cc1cn2c(-c3cn[nH]c3)cnc2c(Nc2ccc(C(=O)N3CCNCC3)cc2F)n1", "13.2 µM (active)"],
  ["CC(C)Cn1cnc2c(N)nc3ccccc3c21", "inactive"],
  ["CN1C(=O)c2sccc2N(C)c2nc(Nc3ccc(S(N)(=O)=O)cc3)ncc21", "2.63 µM (active)"],
  ["CC(C)[N+]1(C)[C@@H]2CC[C@H]1CC(OC(=O)C(CO)c1ccccc1)C2 (some centres undefined)", "9.35 µM (active)"],
  ["NS(=O)(=O)c1ccc(Nc2nc(OCC3CCCCC3)c3[nH]cnc3n2)cc1", "0.469 µM (active)"],
  ["O=C1CCC(N2C(=O)c3ccccc3C2=O)C(=O)N1 (centres undefined)", "inactive"],
  ["C[C@@H](c1ncncc1F)[C@](O)(Cn1cncn1)c1ccc(F)cc1F", "inactive"],
  ["CCOC1OC(=O)C[C@H]1NC(=O)[C@@H]1CCCN1C(=O)[C@@H](NC(=O)c1ccc(N)c(Cl)c1)C(C)(C)C (some centres undefined)", "inactive"],
  ["C[C@@]12O[C@@H](C[C@]1(O)CO)n1c3ccccc3c3c4c(c5c6ccccc6n2c5c31)CNC4=O", "0.166 µM (active)"],
  ["CCC1=C(C)CN(C(=O)NCCc2ccc(S(=O)(=O)NC(=O)NC3CCC(C)CC3)cc2)C1=O (centres undefined)", "inactive"],
  ["Cc1ccc2c(c1)C(=O)[C@]1(O)CCN(c3ccccc3)C1=N2", "inactive"],
  ["Cc1ccc(S(=O)(=O)NC(=O)NN2CC3CCCC3C2)cc1 (centres undefined)", "5.9 µM (active)"],
  ["OC[C@H]1O[C@@H](OCCc2ccc(O)cc2)[C@H](O)[C@@H](O)[C@H]1O", "inactive"],
  ["CN(C)CCc1c[nH]c2ccc(CS(=O)(=O)N3CCCC3)cc12", "inactive"],
  ["COc1cccc2nc(-c3cccs3)nc(NN3C(=O)C=C(C)C3=O)c12", "0.418 µM (active)"],
  ["CCCCN(CCCC)CC(O)c1cc(Cl)cc2c1-c1ccc(Cl)cc1C2=Cc1ccc(Cl)cc1 (centres undefined)", "inactive"],
  ["CCCCC(C)(C)[C@H](O)C=C[C@H]1[C@H](O)CC(=O)[C@H]1CC=CCCCC(=O)O", "20.9 µM (active)"],
  ["CC[C@H](C=C[C@@H](C)[C@H]1CC[C@H]2[C@@H]3CC=C4C[C@@H](O)CC[C@]4(C)[C@@H]3CC[C@]12C)C(C)C", "inactive"],
  ["CC(C)CN(C[C@@H](O)[C@H](Cc1ccccc1)NC(=O)O[C@H]1CO[C@H]2OCC[C@H]21)S(=O)(=O)c1ccc(N)cc1", "3.72 µM (active)"]
]}

----------
Assay: Quantitative highthroughput screen to assess conditional lethalithy of SEM cells grown in RPMI1640 with unreated serum (RPMI+s) (AID 1963883); also: nearly all actives have a fitted effect of over 35% in size;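 as to viability: 100% = DMSO wells and 0% = empty wells without cells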
Details: SEM B-ALL cells, CellTiter-Glo viability, 48 h; series mostly up to 45.8 µM
Records with an inconclusive call do not appear. Calls of active or inactive are those of the source. Calls come from the whole dose curve; as a rule, active = well fitted cell-killing curve with a large enough effect; inconclusive = small, poorly fitted or top-dose-only effect, or effect the other way; inactive = no such curve, though single readings can be large or run the other way.
Labels: true (1) for active, false (0) for inactive

{"columns": ["MOLECULE", "ASSIGNED CATEGORY"],
 "data": [
  ["CN(CCOc1ccc(CC2SC(=O)NC2=O)cc1)c1ccccn1 (centres undefined)", "false (0)"],
  ["CC(C)c1cc(-c2n[nH]c(=O)n2-c2ccc3c(ccn3C)c2)c(O)cc1O", "true (1)"],
  ["O=C1NC(O)CCN1[C@@H]1O[C@H](CO)[C@H](O)[C@H]1O (some centres undefined)", "false (0)"],
  ["CN[C@H]1CCc2cc(OC)c(OC)c(OC)c2-c2ccc(OC)c(=O)cc21", "true (1)"],
  ["Cc1c(CCOc2ccc(C(=O)O)cc2)c2cc(Cl)ccc2n1C(c1ccccc1)c1ccccc1", "false (0)"],
  ["Cc1c(C(=O)Nc2ccc(N3C[C@@H](C)O[C@@H](C)C3)nc2)cccc1-c1ccc(OC(F)(F)F)cc1", "true (1)"],
  ["CC(C)OC(=O)C(C)(C)Oc1ccc(C(=O)c2ccc(Cl)cc2)cc1", "true (1)"],
  ["N[C@@H](Cc1cc(I)c(Oc2cc(I)c(O)c(I)c2)c(I)c1)C(=O)O", "false (0)"],
  ["COc1ccc(S(=O)(=O)Nc2cc(-c3c(O)ccc4ccccc34)c(O)c3ccccc23)cc1", "true (1)"],
  ["C=CC[N+]1([C@H]2C[C@H]3[C@@H]4CC[C@H]5C[C@H](O)[C@@H](N6CCOCC6)C[C@]5(C)[C@@H]4CC[C@]3(C)[C@H]2OC(C)=O)CCCC1", "false (0)"],
  ["Cc1cnc(C(=O)NCCc2ccc(S(=O)(=O)NC(=O)NC3CCCCC3)cc2)cn1", "false (0)"],
  ["CN(C)Cc1ccc(-c2nc3cccc4c3n2CCNC4=O)cc1", "false (0)"],
  ["Cc1cc2cc3c(C)cc(=O)oc3c(C)c2o1", "false (0)"],
  ["COc1ccc2c3c1OC1C[C@@H](O)C=C[C@@]31CCN(C)C2 (some centres undefined)", "false (0)"],
  ["C[C@](Cc1c[nH]c2ccccc12)(NC(=O)OC1C2CC3CC(C2)CC1C3)C(=O)NC[C@H](NC(=O)CCC(=O)O)c1ccccc1 (some centres undefined)", "false (0)"],
  ["COc1ccc(C(=O)CC2(O)C(=O)Nc3c(Cl)ccc(Cl)c32)cc1 (centres undefined)", "true (1)"],
  ["O=c1c(O)c(-c2cc(O)c(O)c(O)c2)oc2cc(O)cc(O)c12", "false (0)"],
  ["CCCCCCCCCCCCCCCC(=O)O[C@H]1[C@@H](O)[C@@H](O)[C@@H]([C@H](NC(=O)[C@@H]2C[C@@H](CCC)CN2C)[C@H](C)Cl)O[C@@H]1SC", "false (0)"],
  ["COc1cc2nc(-c3cc(F)ccc3O)nc(N[C@@H]3CNC[C@@H]3C(C)(C)O)c2cc1OC", "true (1)"]
]}

----------
Experiment: Quantitative highthroughput screen to assess conditional lethalithy of SEM cells grown in Human Plasma-Like Medium with dialyzed fetal bovine serum (HPLM+ds) (AID 1963882); also: nearly all actives have a fitted effect of over 35% in size; also: potency is read from the fitted curve at half-maximal effect
Settings: SEM B-ALL cells in HPLM+ds, CellTiter-Glo viability, 48 h; series mostly up to 45.8 µM
Inconclusive results are not listed. The source made the active and inactive calls. The call rests on the fitted dose curve; in most records, active means well fitted cell-killing curve with a large enough effect; inconclusive means small, poorly fitted or top-dose-only effect, or effect the other way; inactive means no such curve, though single readings can be large or run the other way.
MEASUREMENT NAME: Potency

{"columns": ["MOLECULE", "VALUE"],
 "data": [
  ["NC(=O)NO", "3720 nM (active)"],
  ["C#C[C@]1(O)CC[C@H]2[C@H]3CCc4cc(OC)ccc4[C@H]3CC[C@@]21C", "inactive"],
  ["CC(C)c1cnn2c(NCc3ccccc3)cc(NCCCCCCN)nc12", "inactive"],
  ["C[C@H](CCC(=O)O)[C@H]1CC[C@H]2[C@@H]3[C@H](O)C[C@@H]4C[C@H](O)CC[C@]4(C)[C@@H]3CC[C@]12C", "inactive"],
  ["CC1CNc2c(cccc2S(=O)(=O)N[C@@H](CCCN=C(N)N)C(=O)N2CC[C@@H](C)C[C@@H]2C(=O)O)C1 (stereo not given in full)", "inactive"],
  ["O=C(NC(Cc1cc(=O)[nH]c2ccccc12)C(=O)O)c1ccc(Cl)cc1 (stereo not given)", "inactive"],
  ["Cn1nnc2c(C(N)=O)ncn2c1=O", "332 nM (active)"],
  ["CN(C)CCC=C1c2ccccc2COc2ccc(CC(=O)O)cc21", "inactive"],
  ["COc1ccnc2[nH]cc(C(=O)C(=O)N3CCN(C(=O)c4ccccc4)C[C@@H]3C)c12", "inactive"],
  ["O=C(C=Cc1ccc(/C=C/C(=O)Nc2ccc(C3=NCCN3)cc2)cc1)Nc1ccc(C2=NCCN2)cc1", "inactive"]
]}

----------
Test: Viability qHTS for spleen associated tyrosine kinase inhibitor (SYKi) naive MV4-11 cells (AID 1963823); also: nearly all actives have a fitted effect of over 40% in size; also: potency is read from the fitted curve at half-maximal effect
Details: MV4-11 AML viability, CellTiter-Glo luminescence, 72 h; series mostly up to 45 µM
Records with an inconclusive call do not appear. Activity calls are given as the source filed them. Calls follow the shape of the dose curve; as a rule, active = well fitted cell-killing curve with a large enough effect; inconclusive = small, poorly fitted or top-dose-only effect, or effect the other way; inactive = no such curve, though single readings can be large or run the other way.

{"columns": ["MOLECULE", "Potency"],
 "data": [
  ["Cc1nnn(C)c1-c1cnc2c3ccc(C(C)(C)O)cc3n([C@H](c3ccccc3)C3CCOCC3)c2c1", "0.0042 µM (active)"],
  ["COc1ccc(C(=O)NCc2ccc(OCCN(C)C)cc2)cc1OC", "inactive"],
  ["O=C(/C=C/c1ccc(O)c(O)c1)O[C@@H]1[C@@H](O)[C@H](OC2CCCCC2O)O[C@H](CO)[C@H]1O (stereo not given in full)", "inactive"],
  ["NC(=O)NS(=O)(=O)c1ccc(N)cc1", "inactive"],
  ["O=C(CCCCCCC(=O)Nc1ccc(C2OC(CSc3nc(-c4ccccc4)c(-c4ccccc4)o3)CC(c3ccc(CO)cc3)O2)cc1)NO (stereo not given)", "7.31 µM (active)"],
  ["CC(=O)OC[C@@H]1O[C@@H](n2ccc(=O)[nH]c2=O)[C@H](OC(C)=O)[C@H]1OC(C)=O", "inactive"],
  ["CC(C)[C@@H](CS(=O)(=O)C(C)C)N1C(=O)[C@@](C)(CC(=O)O)C[C@H](c2cccc(Cl)c2)[C@H]1c1ccc(Cl)cc1", "18.6 µM (active)"],
  ["COc1cncc(C#Cc2ccccn2)c1", "inactive"],
  ["COC(=O)C1=CO[C@@H](O[C@@H]2O[C@H](CO)[C@@H](O)[C@H](O)[C@H]2O)[C@@H]2C(CO)=CC[C@H]12", "inactive"],
  ["COc1cc(C(=S)N2CCOCC2)ccc1O", "inactive"],
  ["CN1C2CCC1CC(OC(=O)C(CO)c1ccccc1)C2 (stereo not given)", "inactive"],
  ["c1ccc2c(Nc3nnc(-c4ccncc4)s3)cccc2c1", "inactive"],
  ["CC(C)C[C@@H](N)C(=O)N[C@H]1C(=O)N[C@@H](CC(N)=O)C(=O)N[C@H]2C(=O)N[C@H]3C(=O)N[C@H](C(=O)N[C@H](C(=O)O)c4cc(O)cc(O)c4-c4cc3ccc4O)[C@H](O)c3ccc(c(Cl)c3)Oc3cc2cc(c3O[C@@H]2O[C@H](CO)[C@@H](O)[C@H](O)[C@H]2O[C@H]2C[C@](C)(N)[C@H](O)[C@H](C)O2)Oc2ccc(cc2Cl)[C@H]1O", "inactive"],
  ["CC1=CC(=O)C(=C(C)C)CC2C(C)(O)CCC12O (stereo not given)", "inactive"],
  ["CC#C[C@@H](CC(=O)O)c1ccc(OCc2cccc(-c3ccc(C(F)(F)F)cc3)c2)cc1", "18.6 µM (active)"],
  ["OCc1ccc(-c2ccc(-c3ccc(CO)s3)o2)s1", "1.18 µM (active)"],
  ["CC(c1c[nH]c2ccccc12)C(O)C(=O)O (stereo not given)", "inactive"],
  ["Cc1ncc(CCCN(C)C)cc1Nc1ncc2c(n1)-c1ccc(C(F)(F)F)cc1NC(=S)C2", "0.0517 µM (active)"],
  ["Nc1ncnc2nc(-c3ccc(N4CCOCC4)nc3)cc(-c3cccc(Br)c3)c12", "4.68 µM (active)"],
  ["CNCCC=C1c2ccccc2CCc2ccccc21", "11.6 µM (active)"],
  ["CN1CCCN(C(=O)c2cccc(-c3ccc(/C=C4\\C(=O)Nc5ccc(Cl)cc54)o3)c2)CC1", "0.184 µM (active)"],
  ["C=CC(=O)Nc1cc(Nc2ncc(Cl)c(-c3c[nH]c4ccccc34)n2)c(OC)cc1N(C)CCN(C)C", "0.058 µM (active)"],
  ["NCCNCCNCCN", "inactive"],
  ["C/C1=C\\C[C@H](O[C@@H]2O[C@H](CO)[C@@H](O)[C@H](O)[C@H]2O)/C(C)=C/[C@H]2OC(=O)[C@H](C)[C@@H]2CC1", "inactive"],
  ["CN1CCC(c2c(O)cc(O)c3c(=O)cc(-c4ccccc4Cl)oc23)C(O)C1 (stereo not given)", "0.259 µM (active)"],
  ["CCCn1c(=O)c2[nH]c(C34CC5CC3C[C@@H](C5)C4)nc2n(CCC)c1=O", "18.6 µM (active)"],
  ["COc1c/c(=C2\\C=c3ccccc3=N2)[nH]/c1=C\\c1[nH]c(C)cc1C", "5.17 µM (active)"],
  ["COC(=O)CC(C)(O)CC(=O)OCc1ccc(O[C@@H]2O[C@H](CO)[C@@H](O)[C@H](O)[C@H]2O)cc1 (stereo not given in full)", "inactive"],
  ["COc1cccc(OC)c1-c1nc(C(=O)N[C@@H](CC(C)C)C(=O)O)cn1-c1ccnc2cc(Cl)ccc12", "inactive"],
  ["CCCOC(=O)c1ccc(N)cc1", "inactive"],
  ["O=C(Nc1nc2ccc([N+](=O)[O-])cc2s1)C1CCCCC1", "20.6 µM (active)"],
  ["COc1ccc(F)c(F)c1C(=O)c1cnc(NC2CCN(S(C)(=O)=O)CC2)nc1N", "0.651 µM (active)"],
  ["C[C@H](CCC(=O)O)[C@H]1CC[C@H]2[C@@H]3C[C@H](O)[C@@H]4C[C@H](O)CC[C@]4(C)[C@H]3CC[C@]12C", "inactive"],
  ["O=C(O)C(O[C@@H]1O[C@H](CO[C@@H]2O[C@H](CO)[C@@H](O)[C@H](O)[C@H]2O)[C@@H](O)[C@H](O)[C@H]1O)c1ccccc1 (stereo not given in full)", "inactive"],
  ["COC(=O)C1=CO[C@@H](O[C@@H]2O[C@H](CO)[C@@H](O)[C@H](O)[C@H]2O)[C@@H]2[C@@H](C(=O)O)CC[C@H]12", "inactive"]
]}

FYI, the data here is from PubChem BioAssay (NCATS).
